- experimentalTarget: ^3 H-GABA binding to rat brain membranes
- protocolText: ^3 H-GABA binding to rat brain membranes
- assayConditions: 10 nM ^3 H-GABA, on ice 5 min
pIC50: −log10 of the molar value.
reportedEndpoint: pIC50

# compound `CC(=O)n1oc2c(c1=O)CCNC2` ; its pIC50 = < 4.00
